targetDesc: Mcl-1 (Homo sapiens, UniProt Q07820)
Sequence (Q07820 whole entry, species assumed): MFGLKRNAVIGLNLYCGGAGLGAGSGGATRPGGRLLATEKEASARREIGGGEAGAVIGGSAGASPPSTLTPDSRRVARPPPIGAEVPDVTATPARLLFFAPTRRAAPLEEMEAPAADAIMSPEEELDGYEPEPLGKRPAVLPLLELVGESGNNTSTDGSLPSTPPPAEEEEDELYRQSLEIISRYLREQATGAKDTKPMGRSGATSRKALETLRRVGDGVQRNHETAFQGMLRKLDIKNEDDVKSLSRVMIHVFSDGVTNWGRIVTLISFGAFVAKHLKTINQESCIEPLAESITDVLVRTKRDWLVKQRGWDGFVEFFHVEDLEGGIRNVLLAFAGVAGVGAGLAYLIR
assayProcedure: Inhibition of Mcl-1 (disruption of Mcl-1/Bim interaction)
Format: binding
setupConditions: compound at 50 μM
Field: inhibition at 50 µM. Provide a value for each of the compounds that follow.
Numbers only, in %.

For every listed record, write down its inhibition at 50 µM.
1. CC1(C)CCN(c2ccc(C(=O)NS(=O)(=O)c3ccc4ccc(S(=O)(=O)NCCSc5ccccc5)cc4c3)cc2)CC1
2. CC1(C)CCN(c2ccc(C(=O)NS(=O)(=O)c3ccc(CN(CCSc4ccccc4)Cc4ccc(S(N)(=O)=O)cc4)cc3)cc2)CC1
3. COc1cccc(CN(CCSc2ccccc2)Cc2ccc(S(=O)(=O)NC(=O)c3ccc(OC(F)(F)F)cc3)cc2)c1
4. CC(C)(C)c1ccc(-c2ccc(S(=O)(=O)NC(=O)c3ccc(-c4ccccn4)cc3)cc2)cc1
5. Cc1nc(-c2ccccc2)sc1C(=O)NS(=O)(=O)c1ccc(CN(CCSc2ccccc2)Cc2ccc(S(=O)(=O)N=[N+]=[N-])cc2)cc1
6. NS(=O)(=O)c1ccc(CN(CCSc2ccccc2)Cc2ccc(S(=O)(=O)NC(=O)CCCN3C(=O)C(c4ccc(F)cc4F)=C(c4ccc(F)cc4F)C3=O)cc2)cc1
7. [N-]=[N+]=NS(=O)(=O)c1ccc(CN(CCSc2ccccc2)Cc2ccc(S(=O)(=O)NC(=O)CCCN3C(=O)C(c4ccc(F)cc4F)=C(c4ccc(F)cc4F)C3=O)cc2)cc1
8. O=C(NS(=O)(=O)c1ccc(CN(CCSc2ccccc2)Cc2ccc3c(c2)OCO3)cc1)c1ccc(CCc2ccccn2)cc1

result:
1: 93.9; 2: 94.7; 3: 100; 4: 65.8; 5: 83.1; 6: 7.6; 7: 6.9; 8: 88.6

// each listed compound needs a value for inhibition at 50 µM
1. COc1cccc(CN(CCSc2ccccc2)Cc2ccc(S(=O)(=O)NC(=O)c3sc(-c4ccccc4)nc3C)cc2)c1
2. [N-]=[N+]=NS(=O)(=O)c1ccc(CN(CCSc2ccccc2)Cc2ccc(S(=O)(=O)NC(=O)c3ccc(CCc4ccccn4)cc3)cc2)cc1
3. Cc1nc(-c2ccccc2)sc1C(=O)NS(=O)(=O)c1ccc(CN(CCSc2ccccc2)Cc2ccc3c(c2)OCO3)cc1

result:
1. 100
2. 103
3. 100

* * *

targetDesc: Mcl-1 (Homo sapiens, UniProt Q07820)
assayProcedure: Inhibition of Mcl-1 (disruption of Mcl-1/Bim interaction)
Assay type: binding
setupConditions: compound at 25 μM
Given measured % Inhibition (25 μM) Mcl-1, output 1 if it is greater than or equal to 30% and -1 if not.

Completed entries (count: 6):
COc1ccccc1-c1ccc(C(=O)NS(=O)(=O)c2ccc(NCCSc3ccccc3)c([N+](=O)[O-])c2)cc1
1
O=C(NS(=O)(=O)c1ccc(CN(CCSc2ccccc2)Cc2c(F)cccc2Cl)cc1)c1ccc(-c2ccc(F)cc2)cc1
1
COc1cc2c(cc1OC)C(c1ccccc1)N(Cc1ccc(S(=O)(=O)NC(=O)c3ccc(N4CCC(C)(C)CC4)cc3)cc1)CC2 (centres unmarked)
-1
O=C(NS(=O)(=O)c1ccc(CN(CCSc2ccccc2)Cc2ccc3c(c2)OCO3)cc1)c1cccc(NCCc2ccccc2)c1
-1
O=C(NS(=O)(=O)CCN(CCSc1ccccc1)Cc1ccc2c(c1)OCO2)c1ccc(C(c2c[nH]c3ccccc23)c2c[nH]c3ccccc23)cc1
-1
COc1cccc(CN(CCSc2ccccc2)Cc2ccc(S(=O)(=O)NC(=O)c3ccc(Cc4ccc(OC)c(OC)c4OC)cc3)cc2)c1
1

Let us examine a further case.
query: Is reported % Inhibition (25 μM) Mcl-1 greater than or equal to 30% here: "O=C(Cn1c2ccccc2c2ccccc21)NS(=O)(=O)c1ccc(CN(CCSc2ccccc2)Cc2c(F)cccc2Cl)cc1"
result: 1
